Tested on: KM12 colon
assayDetails: NCI-60 one-dose screen, 48 h (100 = growth as untreated, 0 = no growth, -100 = all killed)
particulars: 10 µM unless noted
Compounds without any hit were thinned out: in the full panel of roughly 83,000, 20% have a hit.
Some compounds, each annotated with its measured growth.
attributeMeasured: growth (%)

[[record]]
compound = "C#CC[C@@H]1C[C@]2(C)[C@H]3CC[C@@H]4[C@H]5C(C(=C)C)CC[C@]5(C(=O)NCCCN5CCN(CCCN)CC5)CC[C@@]4(C)[C@]3(C)CC[C@H]2C(C)(C)[C@H]1OC(C)=O (some centres undefined)"
readoutnumber = -74.6

[[record]]
compound = "O=C(CCc1nc2sc3c(c2c(=O)[nH]1)CCC3)NCc1cn(-c2ccccc2)nc1-c1ccccc1"
readoutnumber = 85.3

[[record]]
compound = "COc1cc(/C=C/c2ccc3c(Br)cc(Br)c(O)c3n2)ccc1O"
readoutnumber = 20.8

[[record]]
compound = "CC[C@H](Nc1nc(N)nc(C2CC2)c1C#N)c1nc2cccc(NCc3ccc(C(=O)NO)cc3)c2c(=O)n1-c1ccccc1"
readoutnumber = 8.71

[[record]]
compound = "C=CC[C@]1(O)CC[C@H]2[C@@H]3CCc4cc(O)ccc4[C@H]3CC[C@@]21C"
readoutnumber = 76.8

[[record]]
compound = "CC1=C(C(=O)Nc2ccc(F)cc2)C(c2ccc(Cl)cc2)C2=C(CC(C)(C)CC2=O)N1 (centres undefined)"
readoutnumber = 92.6

[[record]]
compound = "COc1cc(NCCCCC(C)N)c2nccc(C)c2c1 (centres undefined)"
readoutnumber = 94.7

[[record]]
compound = "O=C(Nc1cccc(Cl)c1)Nc1cc(C(F)(F)F)ccc1Cl"
readoutnumber = -45.1

[[record]]
compound = "CCSc1ccc([C@@H]2[C@@H](N)C(=O)N2c2cc(OC)c(OC)c(OC)c2)cc1"
readoutnumber = 19.4

[[record]]
compound = "C=CCn1c(C)nc2cc(Nc3nc(N4CCOCC4)nc4nc[nH]c34)ccc21"
readoutnumber = 101

[[record]]
compound = "CNC(=O)c1cc(Oc2ccc(NC(=O)c3[nH]c(SC)nc3-c3ccc(F)cc3)cc2)ccn1"
readoutnumber = 19.4

[[record]]
compound = "COc1cc(C2CC(c3ccc(Nc4ccnc5cc(Cl)ccc45)cc3)=NN2c2ccccc2)cc(OC)c1OC (centres undefined)"
readoutnumber = 47.9

[[record]]
compound = "Cc1ccc(NC(=O)c2[nH]c(SCCN(C)C)nc2-c2ccc(F)cc2)cc1C#Cc1cnc2cccnn12"
readoutnumber = -6.46

[[record]]
compound = "O=c1cc(-c2ccc3c(c2)OCCO3)oc2cc(Cl)ccc12"
readoutnumber = 21.3

[[record]]
compound = "CC(=O)N1N=C(c2ccc(C)cc2)CC1c1cn(-c2ccccc2)nc1-c1cccc(Nc2ccnc3cc(Cl)ccc23)c1 (centres undefined)"
readoutnumber = 72.5

[[record]]
compound = "COc1ccc(/C=C2\\N=C(c3cccnc3)N(c3ccccc3)NC2=O)cc1"
readoutnumber = 95.3

[[record]]
compound = "COC(=O)C(C)NC1=C(Cl)C(=O)C(NC(C)C(=O)OC)=C(Cl)C1=O (centres undefined)"
readoutnumber = 96.8

[[record]]
compound = "Clc1ccc(Nc2ncnc3c2sc2ncccc23)c(Cl)c1"
readoutnumber = 50.8

[[record]]
compound = "CC1=C(C(=O)Nc2ccc(F)cc2)C(c2ccccc2)C2=C(CC(C)(C)CC2=O)N1 (centres undefined)"
readoutnumber = 84.5

[[record]]
compound = "CCCCCCCCCC1=NC(C)(C)CN1C(C)(C)CO"
readoutnumber = 97.6

[[record]]
compound = "CC(C)OC(=O)c1ccc([N+](=O)[O-])cc1"
readoutnumber = 113

[[record]]
compound = "COc1ccc(/C(=C\\c2cc(OC)c(OC)c(OC)c2)C(=O)N2CCNCC2)cc1"
readoutnumber = 94.2

[[record]]
compound = "CCCCCCCCCCC(C(O)c1ccccc1)N1CCCCC1 (centres undefined)"
readoutnumber = 8.17

[[record]]
compound = "CCC(C)C1NC(=O)c2nc(oc2-c2ccccc2)-c2csc(n2)-c2csc(n2)-c2nc(oc2C)-c2coc(n2)CNC(=O)C(C(C)CC)NC1=O (centres undefined)"
readoutnumber = -73.9

[[record]]
compound = "[Ag].[Ag].[NH-]S(=O)(=O)c1ccc(N=Nc2cc(N=Nc3ccc(S([NH-])(=O)=O)cc3)c3c(NC(=O)C(Cl)Cl)cccc3c2OC(=O)C(Cl)Cl)cc1.[c-]1nccs1.[c-]1nccs1"
readoutnumber = 80.9

[[record]]
compound = "CC1(C)C2CCC(O)(C(=O)O)C1C2 (centres undefined)"
readoutnumber = 118

[[record]]
compound = "Cc1cccc(C(=O)O)n1"
readoutnumber = 110

[[record]]
compound = "CN1CCN(Cc2ccc(NC(=O)c3ccc(C#N)c(C#Cc4cnc(N)c5ncccc45)c3)cc2C(F)(F)F)CC1"
readoutnumber = 13.5

[[record]]
compound = "Cn1c(=O)c2c3c(oc2c2ccccc21)C(=O)c1ccccc1C3=O"
readoutnumber = 91.5

